Task for the reader: assign each of the following molecules its reported vapor or sublimation pressure.
protocol_conditions: 298.2 K; Liquid; Transpiration method
Record the value in kPa, omitting the unit from your answer.

Prompt: What vapor or sublimation pressure value was documented for this molecule, `CCCCCCC#N` ?
Response: 0.1138

Prompt: Also CCCCCCCCCCC#N [1-decylcyanide] ?
Response: 0.00131

Prompt: Also `CCCCCCCCCCCC#N` ?
Response: 0.00052

Prompt: Also `CCCCCCCC#N` ?
Response: 0.03898

Prompt: Also `CCCCCCCCC#N` ?
Response: 0.0124

---

Task for the reader: assign each of the following molecules its reported vapor or sublimation pressure.
protocol_conditions: 357.2 K; Liquid; Transpiration method
Record the value in kPa, omitting the unit from your answer.

Prompt: What vapor or sublimation pressure value was documented for this molecule, CCCCCCCCCCCCC#N [dodecanecarbonitrile] ?
Response: 0.02764

Prompt: Also CCCCCCCCCCCCCCCCC#N [heptadecanenitrile] ?
Response: 0.00117

Prompt: Also CCCCCCCCCCCCCCCC#N [hexadecanenitrile] ?
Response: 0.00262

Prompt: Also CCCCCCCCCCCCCCC#N [1-tetradecyl cyanide] ?
Response: 0.00567

Prompt: Also CCCCCCCCCCCCCC#N [tetradecanenitrile] ?
Response: 0.01221

---

protocol_conditions: 354.2 K; Liquid; Transpiration method
quantity_measured: vapor or sublimation pressure (kPa)
Record the value in kPa, omitting the unit from your answer.

Prompt: What vapor or sublimation pressure value was documented for this compound, `CCCCCCCCCCCCCC#N` ?
Response: 0.00982

Prompt: Also CCCCCCCCCCCCCCC#N [1-tetradecyl cyanide] ?
Response: 0.00459

Prompt: Also `CCCCCCCCCCCCCCCCC#N` ?
Response: 0.00093

Prompt: Also `CCCCCCCCCCCCC#N` ?
Response: 0.02244

Prompt: Also `CCCCCCCCCCCCCCCC#N` ?
Response: 0.00212

---

protocol_conditions: 351.2 K; Liquid; Transpiration method
Task for the reader: assign each of the following molecules its reported vapor or sublimation pressure.
Record the value in kPa, omitting the unit from your answer.

Prompt: What vapor or sublimation pressure value was documented for this molecule, `CCCCCCCCCCCCCCCC#N` ?
Response: 0.00165

Prompt: Also `CCCCCCCCCCCCCCCCC#N` ?
Response: 0.00072

Prompt: Also `CCCCCCCCCCCCCC#N` ?
Response: 0.00777

Prompt: Also CCCCCCCCCCCCCCC#N [1-tetradecyl cyanide] ?
Response: 0.00356

Prompt: Also `CCCCCCCCCCCCC#N` ?
Response: 0.01796

---

Task for the reader: assign each of the following molecules its reported vapor or sublimation pressure.
protocol_conditions: 319.2 K; Liquid; Transpiration method
Record the value in kPa, omitting the unit from your answer.

Prompt: What vapor or sublimation pressure value was documented for this molecule, CCCCCCCCCCC#N [1-decylcyanide] ?
Response: 0.00877

Prompt: Also CCCCCCCCC#N [nonanenitrile] ?
Response: 0.06245

Prompt: Also CCCCCCCCCCCC#N [n-dodecanenitrile] ?
Response: 0.0036

Prompt: Also CCCCCCCCCC#N [1-decanenitrile] ?
Response: 0.02728

---

protocol_conditions: 363.2 K; Liquid; Transpiration method
Entries whose vapor or sublimation pressure is below 0.009 kPa take 1; entries at or above 0.009 kPa take 0.

Prompt: I'd appreciate it if you could check whether `CCCCCCCCCCCCC#N` has vapor or sublimation pressure smaller than 0.009 kPa.
Response: 0

Prompt: Also `CCCCCCCCCCCCCCCC#N` ?
Response: 1

Prompt: Also `CCCCCCCCCCCCCCCCC#N` ?
Response: 1

Prompt: Also `CCCCCCCCCCCCCC#N` ?
Response: 0

---

Task for the reader: assign each of the following compounds its reported vapor or sublimation pressure.
protocol_conditions: 295.2 K; Liquid; Transpiration method
Record the value in kPa, omitting the unit from your answer.

Prompt: What vapor or sublimation pressure value was documented for this compound, `CCCCCCC#N` ?
Response: 0.09393

Prompt: Also `CCCCCCCCCC#N` ?
Response: 0.00359

Prompt: Also `CCCCCCCC#N` ?
Response: 0.03092

Prompt: Also `CCCCCCCCC#N` ?
Response: 0.00992

---

protocol_conditions: 366.2 K; Liquid; Transpiration method
± gives the expanded uncertainty stated by the source.
Task for the reader: assign each of the following molecules its reported vapor or sublimation pressure.

Prompt: What vapor or sublimation pressure value was documented for this molecule, CCCCCCCCCCCCCCCCC#N [heptadecanenitrile] ?
Response: 0.00252 ± 0.00013 kPa

Prompt: Also CCCCCCCCCCCCCCCC#N [hexadecanenitrile] ?
Response: 0.00532 ± 0.00027 kPa

Prompt: Also CCCCCCCCCCCCCC#N [tetradecanenitrile] ?
Response: 0.02305 ± 0.0011 kPa

Prompt: Also CCCCCCCCCCCCCCC#N [1-tetradecyl cyanide] ?
Response: 0.01122 ± 0.00056 kPa

---

protocol_conditions: 360.2 K; Liquid; Transpiration method
Numbers after ± are expanded uncertainties.
Task for the reader: assign each of the following compounds its reported vapor or sublimation pressure.
The reply should read as a number followed by its unit.

Prompt: What vapor or sublimation pressure value was documented for this compound, `CCCCCCCCCCCCCC#N` ?
Response: 0.01474 ± 0.00074 kPa

Prompt: Also `CCCCCCCCCCCCCCCCC#N` ?
Response: 0.00156 ± 8e-05 kPa

Prompt: Also `CCCCCCCCCCCCCCCC#N` ?
Response: 0.00342 ± 0.00017 kPa

Prompt: Also CCCCCCCCCCCCCCC#N [1-tetradecyl cyanide] ?
Response: 0.00704 ± 0.00035 kPa

Prompt: Also `CCCCCCCCCCCCC#N` ?
Response: 0.03471 ± 0.0017 kPa

---

Task for the reader: assign each of the following compounds its reported vapor or sublimation pressure.
protocol_conditions: 301.2 K; Liquid; Transpiration method
± gives the expanded uncertainty stated by the source.
The reply should read as a number followed by its unit.

Prompt: What vapor or sublimation pressure value was documented for this compound, CCCCCCCCCCCC#N [n-dodecanenitrile] ?
Response: 0.00071 ± 4e-05 kPa

Prompt: Also CCCCCCCCCCCCC#N [dodecanecarbonitrile] ?
Response: 0.00024 ± 1e-05 kPa

Prompt: Also CCCCCCC#N [heptanenitrile] ?
Response: 0.1417 ± 0.0071 kPa

Prompt: Also CCCCCCCCC#N [nonanenitrile] ?
Response: 0.01585 ± 0.00079 kPa
